Just for reference, the supplement of paper PMC9170038 is where these values come from.

# System: MS2 coat protein
# protocol_summary: apparent KD of MS2 coat protein; designed switch direction (-1 OFF switch, 1 ON switch): -1; higher = weaker reporter binding
# test_settings: input ligand: none
test_readout: apparent KD of MS2 coat protein (nM)
One number for each entry, in nM.

Recorded results for 3 sequences are shown here.
{"ordered_residues": "GGUUCGAGAGUAAGGAUAUCGGUCUGCGCGAGUGACGAGAAGGUACAUGAGGAUCACCCAUGUCGAGGGAUCAC [Eternabot (L2) Solution 23] (Eterna round: R97, puzzle: Brourd's mod of Exclusion 4)", "tested_on": "MS2 coat protein", "obs_value": 34.9}
{"ordered_residues": "UGUAAGCUAGGAUAUGCUUUGGGAAAGCAUUCCUUCGAUAAACUUGAGGAUCACCCAAGUAGAAGGAGCUUACG [salish99_ex2_r4_007] (Eterna round: R97, puzzle: Exclusion 2)", "tested_on": "MS2 coat protein", "obs_value": 12.8}
{"ordered_residues": "AUGUUGUCAGGAUAUCUUACAUAACAAUCGUUGUUACCAUUGGAGAAGGGACAUGAGGAUCACCCAUGUUAACC [tap-tap-tappy45] (Eterna round: R97, puzzle: Exclusion 4)", "tested_on": "MS2 coat protein", "obs_value": 21.5}

Fill in apparent KD of MS2 coat protein for each of the 2 sequences listed.
1. AUGCCACAUGAGGAUCACCCAUGUGAGGAUAUGGCCUGUUUGGCGUGUGCUGGCUCUGUCAGAAGGCGCGUGGG [salish99_ex1_r4_036] (Eterna round: R97, puzzle: Exclusion 1)
2. GUACUGAAGCUUUGCUUUAGUCGUACAUGAGGAUCACCCAUGUAGGAUAUGGUAGGCUUUGCUUACCAGAAGGACAGAGUGAUC [JL EXNG3 1.25] (Eterna round: R96, puzzle: Exclusion NG 3)

Reply |
1: 25.7; 2: 85.3

----------
Provide the recorded apparent KD of MS2 coat protein for the entries that follow.
# System: MS2 coat protein
# protocol_summary: apparent KD of MS2 coat protein; designed switch direction (-1 OFF switch, 1 ON switch): -1; higher = weaker reporter binding
# test_settings: input ligand: none
Give bare numbers, in nM.

Worked examples follow.
{"ordered_residues": "ACAUGAGGAUCACCCAUGUGAAAACAAUGGCUGACACAGAGAUAGGAUAUAUGUGCAUAUCAAACAUAGAAGGGUCAUUACUGG [Deportation 86 - Jieux - Exclusion NG 3] (Eterna round: R96, puzzle: Exclusion NG 3)", "apparent KD of MS2 coat protein [nM]": 46.2}
{"ordered_residues": "UUUUACAUGCUGAGAUCCUACAUGAGGAUCACCCAUGUGGUCCGGUGACGUGAGUCACCGGACUUAGCUCGUCUUGU [salish99_S_TOV1_R5_099] (Eterna round: R97, puzzle: Sensor, turn-off variant 1)", "apparent KD of MS2 coat protein [nM]": 304}

Lab note: each sequence below needs its apparent KD of MS2 coat protein filled in.
1. AGUCGAAAGACAAAUAAAAACAUGAGGAUCACCCAUGUAAUGGGUGAAAACAAGCUCACCGUUCGUCUUAAAGAAAA [JL turnoff v1 57] (Eterna round: R96, puzzle: Sensor v2, turn-off variant)
2. AGUAAGCUAGGAUAUGCUUUGGGAAAGCCUUCCUUCGAUAAACUUGAGGAUCACCCAAGUAGAAGGAGCUAAAU [jl-ex2.4.48 ViennaUCT mod] (Eterna round: R97, puzzle: Exclusion 2)

Reply |
[302, 16]

----------
# System: MS2 coat protein
# protocol_summary: apparent KD of MS2 coat protein; designed switch direction (-1 OFF switch, 1 ON switch): -1; higher = weaker reporter binding
# test_settings: input ligand: none
test_readout: apparent KD of MS2 coat protein (nM)
One number for each entry, in nM.

{"ordered_residues": "GGCCCGCGCGGGCCCGGGCCCGGGACAUGAGGAUCACCCAUGUAGGAUAUCCGGCCCGCCGGGCCGGAGAAGGACAUGGGCCCG [-48.9, -45.2 kcal, 17% A] (Eterna round: R96, puzzle: Exclusion NG 3)", "obs_value": 16.9}
{"ordered_residues": "UAUUAGCAAGCAAAUGGGUACAUGAGGAUCACCCAUGUGCUCGUCUUAUAAGGUACUGUGACGACAGUCACGGUACC [mod--Eli4] (Eterna round: R97, puzzle: Sensor, turn-off variant 1)", "obs_value": 25.3}
{"ordered_residues": "UGCAGACGAGGAUAUAAAUUUGAUAACAUGAGGAUCACCCAUGUGAUCGAUAGAUCAAAUUUAGAAGGCGUCUGCA [E5/7-A2] (Eterna round: R97, puzzle: Exclusion 5)", "obs_value": 717}
{"ordered_residues": "AACUUCUGAGGAUAUACAUAGAUUUACAUGAGGAUCACCCAUGUUCCUCUAUGUAUAAAUGUAGAAGGCAGAAGAG [Mat - Exclusion 5 - JL Mod - D63] (Eterna round: R97, puzzle: Exclusion 5)", "obs_value": 17.2}

Consider the additional sequence presented here.
Ask | Which apparent KD of MS2 coat protein reading was recorded for the sequence AAUCCUAGAGGAUAUACAUGUGAACUACUGUACAUCCCUGUACAUGAGGAUCACCCAUGUAGAAGGCUGACGGA [Eternabot (L2) Solution 97] (Eterna round: R97, puzzle: Exclusion 2) ?
Reply | 197

----------
# System: MS2 coat protein
# protocol_summary: apparent KD of MS2 coat protein; designed switch direction (-1 OFF switch, 1 ON switch): -1; higher = weaker reporter binding
# test_settings: Eterna round: R95; input ligand: microRNA oligo, concentration not stated
test_readout: apparent KD of MS2 coat protein (nM)
Numbers only, in nM.

As a guide, the following entries are already answered.
{"ordered_residues": "CAUGGAACAUAGGAUAUCUCGCGGCUAGGCUGCAGAGAAGGAUGUACAUGAGGAUCACCCAUGUAUGAUCCAAU [Ataratin] (puzzle: Exclusion 6)", "apparent KD of MS2 coat protein / nM": 16.3}
{"ordered_residues": "AAAAGGCGAGGAUAUACAUGAGGAUCACCCAUGUGAAAGAAAGAAAGAAAGAAGAAAGGUAGAAGGCGCAAAGA [Mine, also!] (puzzle: Exclusion 3)", "apparent KD of MS2 coat protein / nM": 42.6}
{"ordered_residues": "CCGCAUAAGCAGGAUAUCGUAUCGGAAACGAUACGAGAAGGGUUAACAUGAGGAUCACCCAUGUUCCUUAACGG [Fiskers Ex 6 - 30] (puzzle: Exclusion 6)", "apparent KD of MS2 coat protein / nM": 17.5}
{"ordered_residues": "AGUAACCGUCACGAAAGUGAUGGUUACACAAGAAAUGAAACAUGAGGAUCACCCAUGUCCUCAUUUGCUCGUCUUAU [Sensor 3 - 38] (puzzle: Sensor v3, turn-off variant 2)", "apparent KD of MS2 coat protein / nM": 288}
{"ordered_residues": "UAGGUACAUGAGGAUCACCCAUGUGAGGAUAUAGUUGAAGAUUGCGAGAGGGAGAGGACUAGAAGGCACAGUGG [JR_Exclu1_Sub037] (puzzle: Exclusion 1)", "apparent KD of MS2 coat protein / nM": 40.9}
{"ordered_residues": "CCUCUACAUGAGGAUCACCCAUGUGAGGAUAUCUCGGAAAAGCCACUUAAGGUACUCCAGAGAAGGCACGUGUA [Rileed] (puzzle: Exclusion 1)", "apparent KD of MS2 coat protein / nM": 15.2}
{"ordered_residues": "AACCAUGAAGGAUAUGACUUAACGAACAUGAGGAUCACCCAUGUGACCGAGCAGUGUUGAUCAGAAGGUUAAGGUG [Rier] (puzzle: Exclusion 5)", "apparent KD of MS2 coat protein / nM": 83.7}
{"ordered_residues": "AUGAGGUUAGGAUAUACAUGAGGAUCACCCAUGUUGAAAGGUUAGAUAGGAGAAGAUAGUAGAAGGAACAAAGA [JR_Exclu3_Sub053] (puzzle: Exclusion 3)", "apparent KD of MS2 coat protein / nM": 37.2}

Lab note: each sequence below needs its apparent KD of MS2 coat protein filled in.
1. CAGUACUGAGGAUAUACAUGAGGAUCACCCAUGUGUUCCAGCUAGGAAGCUAGCAAAAGUAGAAGGCAGUACUG [salish99_ex3_r3_073] (puzzle: Exclusion 3)
2. GGUCAAGAGCAGAUCCGCGCUGCUAUUGACCGCUCAUUUACAUGAGGAUCACCCAUGUUUUUUGCUCGUCUUAUUAC [Biinedmaa] (puzzle: Sensor v3, turn-off variant 2)
3. UCAUGGUAGCAGGAUAUGCUAGAAAUUUUUUAUGCAGAAGGGCUUACAUGAGGAUCACCCAUGUGUUAGGUUUA [JR_E6_Sub071] (puzzle: Exclusion 6)

Reply |
[26.6, 77.7, 110]

----------
# System: MS2 coat protein
# protocol_summary: apparent KD of MS2 coat protein, switch ON state; designed switch direction (-1 OFF switch, 1 ON switch): -1; higher = weaker reporter binding
# test_settings: FMN input: 0 or 200 uM; Eterna round: R93 (includes R88 designs)
Param threshold (0.04 µM) applies to apparent KD of MS2 coat protein; output y when value >= threshold, n when value < threshold.

# count of solved cases: 4
{"ordered_residues": "CUCAAGUUAGGAUAUACAAGAAAAGAAGAGAAAGAAAAGAAGUAGAAGGAACAUGAGGAUCACCCAUGUAAGAA [EteRNA is fun!]", "tested_on": "MS2 coat protein", "assigned_label": "n"}
{"ordered_residues": "AAAAAACAUGAGGAUCACCCAUGUCAGGAUAUGCGAAGCAAAAAAAAAAAAAAGCGAAGCAGAAGGGACUAAAA [Exclusion1 Malc#5]", "tested_on": "MS2 coat protein", "assigned_label": "n"}
{"ordered_residues": "AUCUACCUAGGAUAUACAUGAGGAUCACCCAUGUACAGUUUCAACUAGGGAAACUCACGUAGAAGGAGGUAGAU [JR_Exc003_Sub1209]", "tested_on": "MS2 coat protein", "assigned_label": "y"}
{"ordered_residues": "AACAGUACAGGAUAUACAUGAGGAUCACCCAUGUGGGUAAAAAGAUCGAGAGAUCAAUGUAGAAGGGUACUGGA [JL In the Red 04]", "tested_on": "MS2 coat protein", "assigned_label": "y"}

Ask | hey, is apparent KD of MS2 coat protein for this one >= 0.04 µM? AUGGUACAUGAGGAUCACCCAUGUCAGGAUAUCGGCUAAAACGUAAAAAAAAUAAAAGCGAGAAGGGACUGCUC [EX1 Malc#18 Mod 8 - Jieux - Exclusion 1]
Reply | n

Ask | Thanks! And AAGAAUGGAGGAUAUACAAAAUAAAAGAAAAGAAAGAAAGAACAUGAGGAUCACCCAUGUAGAAGGCCAAAGAA [Khasekhemre Neferhotep I] ?
Reply | n

Ask | Also, AAAGUGUGAGGAUAUGUCAAAGGACACGAAAGUGACAAAGGACAGAAGGUACAUGAGGAUCACCCAUGUAAAAA [milkweed 18] please.
Reply | n

Ask | Lookup AAUGUACGAGGAUAUACAUAGAUACAGAUACAUGUAGACGUACAUGAGGAUCACCCAUGUAGAAGGCGUAUAUA [Mat - Same state - Mayanna Mod - D113]
Reply | y

Ask | Now the sequence AAAAAACAUGAGGAUCACCCAUGUAAGGAUAUGUAAAAUAAAAGAAAAAUAAAGAAAAGCAGAAGGUAUAUGAA [JL wbt mod 13]
Reply | n

Ask | // next record AAGAAUCGAGGAUAUACAUGAGGAUCACCCAUGUAAAAGAAAGAAGGGAAAGAGAAAAGUAGAAGGCGAAAGAA [Menkheperre Nekau I]
Reply | n

Ask | Same for CCGAGGCGAGGAUAUAUGAAGGACACAACAUUUAGGGUAAGACAUGAGGAUCACCCAUGUAGAAGGCGCGACGC [Ex2_Neo]
Reply | y

Ask | Entry to check: AAGAAACAUGAGGAUCACCCAUGUCAGGAUAUCGAAGAAAGAAAGAAAGAAAGAAGAACGAGAAGGGACAAAGG [Gaius Iulius Aquila]
Reply | y

Ask | Queued: ACUUGACAUGAGGAUCACCCAUGUCAGGAUAUAGUACGACAAAUAAAUAAAAGUUCUACUAGAAGGGAUAUGGA [Amethyst 53]
Reply | n

Ask | // query: AAAUGAUGAGGAUAUACAUGAGGAUCACCCAUGUGUAAAAAUAAAUACACAAAAGAAAGUAGAAGGCAUCAAAG [Mat - Exclusion 3 - Mayanna mod - D119]
Reply | n

Ask | # repeat for AAAACGUGAGGAUAUGCACCAAAAAAGGUAAAUCGGGUACGACAUGAGGAUCACCCAUGUAGAAGGCACGAAAA [Frodo Flailing 11 - Jieux - Exclusion 2]
Reply | n

Ask | Follow-up item: AAGAAGUAAGGAUAUCGUGCUCGUCACAAAAGUGAUGAGUACGAGAAGGUACAUGAGGAUCACCCAUGUAAAGA [Opal 35]
Reply | n

Ask | Now the sequence AAGAAGUCAGGAUAUGCUGCUCGUCACUUGCGUGAUGAGUAGCAGAAGGGACAUGAGGAUCACCCAUGUAAAGA [Opal 14]
Reply | y

Ask | Input AACAUGUAAGGAUAUUGAAGAAAAGAAAAGAAAGAAAAGAACAAGAAGGUACAUGAGGAUCACCCAUGUAAGAA [EteRNA is fun!]
Reply | n

Ask | What about this sequence? CAAAAGGAAGGAUAUACAUAAUAAAACGGGCGGGCACCUUAACAUGAGGAUCACCCAUGUAGAAGGUCCAAUAC [Onesmabe]
Reply | n

Ask | Same lookup for AAAAGACAUGAGGAUCACCCAUGUAAGGAUAUGCAGAGAGCAAAACAAAAAAAAAAAAGCAGAAGGUACAUAAA [Design2] , please.
Reply | y

Ask | // same read-out, input: AAAAAGUGAGGAUAUGCAGUGGCCUGUAGACGCGAGCACUUGUAGAAGGCACAUGAGGAUCACCCAUGUUUAAA [EX4 Malc#29]
Reply | n

Ask | Same read-out for AAACGUUGAGGAUAUACAGAAGGGUAUAAAUCAAAAAAAACACAUGAGGAUCACCCAUGUAGAAGGCAACGAAA ?
Reply | y

Ask | Also, AAAAAUUGAGGAUAUACGAACAUGUCAAAAGACGUGAAGGGACAUGAGGAUCACCCAUGUAGAAGGCGAAAGAA [JL Loop Breaker 1] please.
Reply | y

Ask | Same question for UACGUAUGAGGAUAUACAAACAGAAAAAUCAGACAUAACAGACAUGAGGAUCACCCAUGUAGAAGGCAUAUACA [JR_Exc002_Sub903] please.
Reply | n

Ask | Same again, this time with GAAAAGUCAGGAUAUAUAGGAAAAAUAAAAAAAAUAAAACUAUAGAAGGGACAUGAGGAUCACCCAUGUUAAAA [Mat - Exclusion 4 - Mayanna - D131]
Reply | y
